target: ACE-2 (Homo sapiens, UniProt Q9BYF1); construct: a stop codon inserted after the serine immediately preceding the transmembrane domain; made in house; host or cells: CHO K1 cells (transient transfection, purified from conditioned medium); test: ACE-2 Competitive Substrate Assay (ACS Assay); format: biochemical; conditions: Ki class per key; compounds tested in 5% DMSO, 12 compound concentrations, 25° C.; Ki=Kiapp/(1+[S]/Km); read-out: Human ACE-2 Activity
Sequence (Q9BYF1 18-740 limits assumed): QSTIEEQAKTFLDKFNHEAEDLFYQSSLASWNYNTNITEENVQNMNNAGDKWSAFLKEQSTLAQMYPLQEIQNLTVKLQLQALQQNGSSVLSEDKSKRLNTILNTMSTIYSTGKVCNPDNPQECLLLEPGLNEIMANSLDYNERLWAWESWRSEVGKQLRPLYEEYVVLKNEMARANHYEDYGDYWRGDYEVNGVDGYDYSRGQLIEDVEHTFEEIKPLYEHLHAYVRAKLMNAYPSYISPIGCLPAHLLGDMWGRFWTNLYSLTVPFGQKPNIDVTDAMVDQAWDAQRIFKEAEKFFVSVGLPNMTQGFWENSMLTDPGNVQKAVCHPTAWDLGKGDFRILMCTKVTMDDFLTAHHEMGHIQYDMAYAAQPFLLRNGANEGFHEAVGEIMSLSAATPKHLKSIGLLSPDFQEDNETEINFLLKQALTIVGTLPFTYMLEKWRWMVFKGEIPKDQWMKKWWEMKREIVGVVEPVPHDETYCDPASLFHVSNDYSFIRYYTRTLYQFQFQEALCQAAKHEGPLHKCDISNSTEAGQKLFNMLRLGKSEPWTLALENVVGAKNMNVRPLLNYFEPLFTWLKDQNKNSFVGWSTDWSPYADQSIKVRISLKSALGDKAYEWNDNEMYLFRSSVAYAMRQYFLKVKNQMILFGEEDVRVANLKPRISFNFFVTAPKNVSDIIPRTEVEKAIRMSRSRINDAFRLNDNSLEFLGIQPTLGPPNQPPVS
observation.type: Ki

Example cases with answers are listed next.
cpd.smiles | Ki
CC(C)C[C@H](N[C@@H](Cc1ccc(-c2cnc3ccccc3c2)cc1)C(=O)O)C(=O)O | < 0.1 µM
CC(C)C[C@H](N[C@@H](Cc1ccc(C(=O)O)n1Cc1cc(Cl)cc(Cl)c1)C(=O)O)C(=O)O | < 0.1 µM
O=C(O)[C@H](CCc1ccccc1)N[C@@H](Cc1cncn1Cc1cc(Cl)cc(Cl)c1)C(=O)O | < 0.1 µM
CC(C)C[C@H](N[C@@H](CN1C(=O)CN(Cc2cc(Cl)cc(Cl)c2)C1=O)C(=O)O)C(=O)O | < 0.1 µM
CC(C)C[C@H](N[C@@H](Cc1ccc(NS(=O)(=O)c2ccccc2)cc1)C(=O)O)C(=O)O | > 0.5 µM

Please find the next compound below.
Exam item: May I ask what Ki has been recorded for CC(C)C[C@H](N[C@@H](Cc1ccc(Oc2cc(Cl)cc(Cl)c2)cc1)C(=O)O)C(=O)O ?
Marked response: 0.1 to 0.5 µM
